system: HCT-116 colon; assay: NCI-60 one-dose screen, 48 h; details: 10 µM unless noted
Compounds without any hit were thinned out: in the full panel of roughly 83,000, 20% have a hit. The source made the active and inactive calls. How the source made its calls: active means growth percent below 10; inactive means the rest.
Labels: Y (active), N (inactive)

CC1=NOCC(=O)N1 ... N
COC1=CC(c2ccc[nH]2)=N/C1=C\c1[nH]c(C)c(C(=O)CCCCCCCCC(=O)O[C@H]2CC[C@H]3C4CCc5cc(O)ccc5C4CC[C@]23C)c1C (some centres undefined) ... Y
CSC1=NC(=Nc2c(C)cccc2C)C2(CCC(C(C)(C)C)CC2)N1c1ccc(Cl)cc1 (centres undefined) ... N
CCCCN(CCCC)CCC(O)c1cc2ccc(C(F)(F)F)cc2c2cc(C(F)(F)F)ccc12 (centres undefined) ... N
CCN(CC)CCC(CNc1ccnc2cc(Cl)ccc12)c1ccc(O)cc1 (centres undefined) ... N
COc1cc(/C=C/C(=O)c2c(C)nc3ccccc3c2C)ccc1OCCCOc1cc2c(cc1OC)C(=O)N1CCC[C@H]1C=N2 ... Y
CN(C)c1ccc(N2Cc3ccccc3OC3=C2C(=O)c2c(O)ccc(O)c2C3=O)cn1 ... Y
CCSc1ccc([C@@H]2[C@@H](O)C(=O)N2c2cc(OC)c(OC)c(OC)c2)cc1 ... Y
OC(c1cc(-c2ccc(C(F)(F)F)cc2)nc(-c2ccc(C(F)(F)F)cc2)c1)C1CCCCN1 (centres undefined) ... Y

* * *

test system: SNB-75 CNS; test: NCI-60 one-dose screen, 48 h; settings: 10 µM unless noted
About 83,000 compounds went through this panel and 20% of them were active in at least one assay; those are over-represented in the sample as a whole. The source made the active and inactive calls. How the source made its calls: active means growth percent below 10; inactive means the rest.
Labels: true (1) (active), false (0) (inactive)

Cc1cc(C)c([O-])c(CN(C)CCN(C)Cc2cc(C)cc(C)c2[O-])c1.O=C([O-])c1cccc(C(=O)[O-])n1.[Ti+4] ... true (1)
CCC(C)C1NC(=O)c2nc(oc2-c2ccccc2)-c2csc(n2)-c2csc(n2)-c2nc(oc2C)-c2coc(n2)CNC(=O)C(C(C)CC)NC1=O (centres undefined) ... true (1)
COc1cccc(/C=N/N=C(N)N)c1 ... false (0)
Cc1ccc2nc(CN(CCN(Cc3nc4ccc(C)cc4[nH]3)Cc3nc4ccc(C)cc4[nH]3)Cc3nc4ccc(C)cc4[nH]3)[nH]c2c1 ... true (1)
COc1ccc(NC(=O)c2ccc(C(F)(F)F)nc2Nc2ccc(Cl)cc2C)cc1Cl ... false (0)
CC(C)N=C1CCCC1C(=S)SSC(=S)C1CCCC1=NC(C)C (centres undefined) ... false (0)
CC(C)NCCCCCNc1cc(O)cc2cccnc12 ... false (0)
NC(=S)N/N=C(/c1cccs1)C1CC1 ... false (0)
COc1cc2nccc(Oc3ccc(NC(=O)C4(C(=O)Nc5c(F)cc(F)cc5F)CC4)cc3)c2cc1Oc1ccc(N)cn1 ... false (0)

* * *

growth reference
test system: LOX IMVI melanoma; assay: NCI-60 one-dose screen, 48 h (100 = growth as untreated, 0 = no growth, -100 = all killed); settings: 10 µM unless noted
The panel holds about 83,000 compounds, 20% with a hit somewhere; the sample as a whole holds those more often.
Recorded Endpoint: growth (%)

CCCCCCCCCCCCCCCCS(=O)(=O)Nc1cc(C(=O)NN)cc(C(=O)NN)c1 ... 70
O=C(Nc1cccc(Cl)c1)Nc1cc(C(F)(F)F)ccc1Cl ... -11.8
O=C1Cc2c([nH]c3ccc([N+](=O)[O-])cc23)-c2ccccc2N1 ... 9.02
COc1ccc(-c2nn(-c3cccc(Cl)c3)cc2/C=C2\C(=N)N(c3ccccc3)N=C2N)cc1 ... 6.46
Cc1cc(O)ccc1C1=NN(c2ccc(S(N)(=O)=O)cc2)C(=O)CC1 ... 63

* * *

System: OVCAR-3 ovarian
Test: NCI-60 one-dose screen, 48 h (100 = growth as untreated, 0 = no growth, -100 = all killed)
Conditions: 10 µM unless noted
Protocol: Growth inhibition of the OVCAR-3 human tumor cell line is measured as a screen for anti-cancer activity. Cells are grown in 96 well plates and exposed to the test compound for 48 hours. Compounds are tested at a single concentration, which is 10^-5 M for most compounds. The reported endpoint is percent growth (GI% or GIPRCNT), where numbers from 0 - 100% represent growth inhibition, and numbers from -100% - 0 represent cell death. For example, a value of 40 represents 60% growth inhibition. […]
Compounds without any hit were thinned out: in the full panel of roughly 83,000, 20% have a hit.
Lab note: compare growth with 70%, writing TRUE if less and FALSE if equal or more.

CCCCn1c(C)nc2cc(Nc3nc(Cl)nc4nc[nH]c34)ccc21 ... FALSE
CS(=O)(=O)Nc1cc(-c2cc3ncc(C#N)c(Nc4ccc(Oc5ccccc5)c(Cl)c4)c3s2)cnc1Cl ... TRUE
CCOP(=O)(O)OP(=O)(O)OCC ... FALSE
COc1cc(/C=C/C(=O)c2ccc(NC(=O)CSc3nnc(-c4ccc(Cl)cc4)n3-c3ccccc3)cc2)cc(OC)c1OC ... FALSE
Fc1ccc(-c2nnc(N3CCOCC3)c3ccccc23)cc1 ... FALSE
COc1ccc(C(=O)C(C#N)c2cc(OC)c(OC)c(OC)c2)cc1 (stereo not given) ... FALSE
CCCC(CCC)NCC(O)c1cc(-c2ccc(C(F)(F)F)cc2)nc(C(F)(F)F)c1 (stereo not given) ... TRUE
COc1c(C(=O)/C=C/c2ccc(C)o2)c(O)cc2occc12 ... TRUE
Oc1ccc(Cl)cc1-c1cc(-c2ccccc2Cl)[nH]n1 ... TRUE
Clc1cn2cc(-c3ccc(Cl)c(Cl)c3Cl)nc2s1 ... FALSE

* * *

test system: HOP-92 NSCLC; assay: NCI-60 one-dose screen, 48 h; details: 10 µM unless noted
Compounds without any hit were thinned out: in the full panel of roughly 83,000, 20% have a hit. Active and inactive are the calls of the source. How the source made its calls: active means growth percent below 10; inactive means the rest.
Labels: T = active, F = inactive

Nc1n[nH]c2ccc([C@@H]3Nc4c(F)cc5[nH]ncc5c4[C@H]4C5CCC(C5)[C@@H]34)cc12 (stereo partly drawn) ... F
COc1cccc(/C=N/N=C(N)N)c1 ... F
Cc1cc(N=Nc2ccc(-c3ccc(N=Nc4ccc(O)c(C(=O)O)c4)cc3)cc2)c(N)c(N=Nc2ccc(C(=O)O)cc2)c1N ... F
COc1ccc(-c2n[nH]nc2-c2cc(OC)c3c(c2)OCO3)cc1 ... F
CC1(C)CC[C@]2(C(=O)N3CCNCC3)CC[C@]3(C)C(=CC[C@@H]4[C@@]5(C)CCC(=O)C(C)(C)[C@@H]5CC[C@]43C)[C@@H]2C1 ... F
COc1ccc(C2=NN(C=O)C(c3ccc(OS(=O)(=O)c4ccc(C)cc4)c(OC)c3)C2)cc1 (stereo not drawn) ... F
O=C(Nc1ccccc1)C(CCCCN1C(=O)c2ccccc2C1=O)N1C(=O)c2ccccc2C1=O (stereo not drawn) ... F
COc1ccc(C2C3CCc4ccccc4C3=NN2C(=O)c2cc(OC)c(OC)c(OC)c2)cc1O (stereo not drawn) ... F
O=C(CCCCCCc1nc2ccc(Br)cc2[nH]1)NO ... T
NS(=O)(=O)c1ccc(N2N=C(c3cccs3)CC2c2ccccc2O)cc1 (stereo not drawn) ... T
O=C(O)/C=C(\c1nc2ccc([N+](=O)[O-])cc2[nH]1)c1cc(Cl)ccc1O ... T
c1ccc(C(Nc2ccccn2)(c2ccccc2)c2ccccc2)cc1 ... T
CN1CCN(Cc2ccc(NC(=O)c3cccc(C#Cc4cnc(N)c5ncccc45)c3F)cc2C(F)(F)F)CC1 ... F
O=C1/C(=C\c2cccn2Cc2ccc(Cl)cc2)c2ccccc2N1c1c(Cl)cccc1Cl ... F
CCCCCCCCCCCCCC[N+](C)(C)CCCCCCCCCCCCCC ... T
C=C1NC(=O)C(C(C)CC)NC(=O)C2CSCC(NC(=O)CCC(=O)O)C(=O)NC(Cc3ccccc3)C(=O)NC(C)C(=O)NC(CC(C)CC)C(=O)NC(C(=O)NC(Cc3ccccc3)C(=O)N3CCCC3C(=O)N2)C(C)OC(=O)C(CO)NC(=O)C(C(O)COC)N(C)C(=O)C(C(C)C)NC(=O)C(CC(C)CC)NC1=O (stereo not drawn) ... F
CN1CCN(c2ccc(N3Cc4ccccc4OC4=C3C(=O)c3c(O)ccc(O)c3C4=O)cn2)CC1 ... T
COc1ccc(C2=Nn3c(nnc3-c3ccc(Cl)cc3N)SC2)cc1 ... F
CCC1CCc2nc3sc(C(=O)Nc4cccc(F)c4)c(N)c3cc2C1 (stereo not drawn) ... F
CC1CCN(Cc2ccc(NC(=O)c3cc4ccc5cccnc5c4[nH]3)cc2)CC1 ... F
Cn1nc(C(F)(F)F)cc1-c1c[nH]c(OCc2ccc(Cl)cc2)c(-c2ccc(Cl)c(C(F)(F)F)c2)c1=O ... T
O=C(Nc1ccccc1Cl)Oc1ccc2ccccc2c1 ... F
C/C(=N\NC(=S)N1CCCCC1)c1ccccn1 ... T
F ... T
COc1cc(CN2CCO[C@H](COc3cccc(F)c3)C2)ccc1Cl ... F
CC(=O)c1cc(C(=O)c2ccc3c(c2)Sc2ccccc2N3)c2c(C)cccn12 ... F
CCN(CC)CCCNc1cccc2c(C)cc(OC)nc12 ... F
COc1ccc(-n2nc(C(=O)NCC(=O)Nc3nc4cc(OC)ccc4s3)c3ccccc3c2=O)cc1 ... T
Cc1ccc(NC(=O)c2nc(S(C)(=O)=O)oc2-c2ccc(F)cc2)cc1Nc1ccc2ncn(C)c(=O)c2c1 ... F
COCCn1c(Nc2ccc(C(=O)NO)cc2)nc2ccccc21 ... F
COc1cc2c(cc1C)NC(=O)/C2=C\c1c[nH]c2ccccc12 ... F
CC(OC(=O)Nc1cccc(Cl)c1)C(=O)O (stereo not drawn) ... F
O=S(=O)(NCC[C@@H]1C[C@H]1c1ccc2ccccc2c1)c1ccc(C(F)(F)F)cc1 ... F
COc1cc(-c2n/c(=C\c3c(O)[nH]c4cc(Cl)ccc34)cc3c2=Nc2ccccc2-3)cc(OC)c1OC ... F
CCCC(CCC)NCC(O)c1cc(-c2ccc(C(F)(F)F)cc2)nc(C(F)(F)F)c1 (stereo not drawn) ... T
COc1ccc(/C=C/C(=O)c2ccc(NC(=O)CSc3nnc(-c4ccc(Cl)cc4)n3-c3ccccc3)cc2)cc1 ... F
C[C@@H](C[C@H](CC1CC1)c1ccccc1)c1ccc2ccccc2c1 ... F
CCCc1cc2c(cc1CN(Cc1cc3c(cc1CCC)OCO3)C(=N)OCC)OCO2 ... F
